tested on: biomarker (antibody) in serum samples from patients with symptoms of tuberculosis; type: binding, human; settings: serum sample 25 TB−
Assay Metric: ELISA absorbance at 492 nm
Just the number, please.

Molecule	ELISA absorbance at 492 nm
CCCCCCCCCCCCCCCCCCCCCC[C@@H](C(=O)OC[C@H]1O[C@H](OC)[C@@H](O)[C@@H]1O)[C@H](O)CCCCCCCCCCCCCCC[C@@H]1C[C@@H]1CCCCCCCCCCCCCCCCCCC(=O)C(C)CCCCCCCCCCCCCCCCCC (some centres unmarked) [Antigen C]	0.24

Challenge: Look up ELISA absorbance at 492 nm: CCCCCCCCCCCCCCCCCCCCCCCC[C@@H](C(=O)OC[C@H]1O[C@H](OC)[C@@H](O)[C@@H]1O)[C@H](O)CCCCCCCCCCC[C@H]1CC1CCCCCCCCCCCCCC[C@H]1C[C@H]1CCCCCCCCCCCCCCCCCCCC (some centres unmarked) [Antigen F]
Response given: 0.21
